The reported numbers originate from PubChem BioAssay AID1996.

A collection of compounds and their measured solubility kinetic
- CONDITION DESCRIPTION: buffer; pH 7.4; 200.0 µM
Answer in µg/mL, number only, no unit symbol.

Here's what some known entries look like.
O=C(NCCc1ccccc1)c1ccc2c(c1)OCCCO2 ... 39.8
Cc1cccc(C)c1OCCN1CCOCC1.O=C(O)C(=O)O ... 42.1
O=C(N[C@@H](Cc1c[nH]c2ccccc12)C(=O)O)c1ccccc1Cl ... 45.8
Cc1cccc(C)c1N(CC(=O)N1CCCC1)S(C)(=O)=O ... 35.2
O=C(Nc1ccc([N+](=O)[O-])cc1)C1COc2ccccc2O1 (configuration not stated) ... 0.9

Look up solubility kinetic: COc1ccc(C)c2sc(N(CCN(C)C)C(=O)c3ccc4ccccc4c3)nc12.Cl
30.8

Look up solubility kinetic: CN(C)C(CNC(=O)c1cc(-c2ccco2)nc2ccccc12)c1ccccc1 (configuration not stated)
33.9

Look up solubility kinetic: CC(=O)c1c(C)[nH]c(C(=O)Nc2nccs2)c1C
20.8

Look up solubility kinetic: CCOC(=O)C1(CCc2ccccc2)CCN(CC(O)CO)CC1 (configuration not stated)
39.8

====

- CONDITION DESCRIPTION: buffer; pH 7.4; 200.0 µM
A collection of molecules and their measured solubility kinetic

Here's what some known entries look like.
COc1ccc(N2C(=O)CC(NCC#N)C2=O)cc1 (stereo not given) ... 33.1 µg/mL
COc1ccc2nc(COC(=O)c3cccs3)c(C(C)=O)[n+]([O-])c2c1 ... 1.6 µg/mL
C=CCNC(=O)c1ccccc1NC(=O)C1CC(=O)N(C(C)C)C1 (stereo not given) ... > 49.4 µg/mL
Cn1cnnc1Sc1ccc(S(C)(=O)=O)cc1[N+](=O)[O-] ... > 47.1 µg/mL
COc1ccc(CCNC(=O)c2cccn2C)cc1 ... 33.3 µg/mL
CCC(=O)Nc1ccc2oc(-c3cccnc3)nc2c1 ... 38.4 µg/mL
Cc1ccc(NC(=S)c2ccc3ccccc3n2)c(C)c1 ... < 0.3 µg/mL
OCCN1CCN(c2ncnc3sc4c(c23)CCCC4)CC1 ... > 47.8 µg/mL

Look up solubility kinetic: COc1ccc(Cl)cc1NC(=O)C1CC(c2ccccc2O)=NO1 (stereo not given)
0.9 µg/mL

Look up solubility kinetic: Cc1cc2oc(=O)cc(Cn3ccnc3)c2cc1Cl
34.3 µg/mL

====

- CONDITION DESCRIPTION: buffer; pH 7.4; 200.0 µM
Categories are assigned from the measured solubility kinetic using these intervals: bottom end: < 6 µg/mL; midrange: ≥ 6 µg/mL and < 20 µg/mL; top end: ≥ 20 µg/mL

Illustrative cases are given below, each with its answer.
Cc1cc(CSc2nc(C)cc(=O)[nH]2)c2ncccc2c1 ... midrange
Cc1ccc(SCCC(=O)N/N=C/c2cccnc2)cc1 ... top end
CCN(C/C=C/c1ccccc1OC)Cc1ccccc1 ... midrange

Could you tell me which band COC(=O)c1ccc(NC(=O)c2cc[n+]([O-])cc2)cc1 belongs to?
top end

Could you tell me which band Cc1ccc(NC(=O)CN2CCCCCC2)cc1[N+](=O)[O-] belongs to?
bottom end

Could you tell me which band CCc1sc(C(=O)Nc2nccs2)cc1C belongs to?
bottom end

Could you tell me which band CC(C)c1ccc(NC(=O)Cn2c(=O)oc3ccccc32)cc1 belongs to?
bottom end

Could you tell me which band COc1ccc(NC(=O)CN(C)CC(=O)N2CCCCCC2)cc1 belongs to?
top end

Could you tell me which band COC(=O)Nc1ccc(S(=O)(=O)Nc2cnc3ccccc3n2)cc1 belongs to?
top end

Could you tell me which band CC(CC(=O)N1CCN(C(=O)c2ccccc2)CC1)c1ccccc1 (centres undefined) belongs to?
top end

Could you tell me which band CC(NC(=O)c1cc(Br)ccc1Cl)c1ccccc1 (centres undefined) belongs to?
bottom end

Could you tell me which band O=C(/C=C/N1CCN(Cc2ccccc2)CC1)C(F)(F)F belongs to?
top end

Could you tell me which band Cc1nc(N(C)Cc2ccccc2)c2c(C)c(C)sc2n1 belongs to?
bottom end

Could you tell me which band Cc1cccc(NC(=S)NC(=O)Cc2ccccc2)c1C belongs to?
bottom end

Could you tell me which band Fc1ccc(Oc2ccnc(Cl)n2)c(Cl)c1 belongs to?
midrange

Could you tell me which band O=C(CSCc1c(F)cccc1Cl)NCc1ccncc1 belongs to?
top end

Could you tell me which band COC(=O)CCC(=O)NNC(=O)c1ccc([N+](=O)[O-])cc1 belongs to?
top end

Could you tell me which band Cc1nn(CC(=O)NC2CCS(=O)(=O)C2)c(C)c1[N+](=O)[O-] (centres undefined) belongs to?
top end

Could you tell me which band CCOC(=O)N1CCN(C(=S)Nc2ccccc2C(C)C)CC1 belongs to?
top end

Could you tell me which band CC(=O)Nc1ccccc1NS(=O)(=O)c1ccccc1[N+](=O)[O-] belongs to?
top end

Could you tell me which band CCC1(c2ccccc2)NC(=O)N(CC(=O)N(c2ccccc2)C2CCS(=O)(=O)C2)C1=O (centres undefined) belongs to?
top end

Could you tell me which band Cc1ccc2[nH]cc(S(=O)(=O)c3ccc(C(C)C)cc3)c(=O)c2c1 belongs to?
bottom end

Could you tell me which band CSc1ncccc1C(=O)NCCc1ccccc1F belongs to?
top end
